I'd be grateful if you could share measured Log10LC50 for these entries.
Test system: MDA-MB-231/ATCC
procedure_details: NCI 60 human tumor cell line screen (SRB)
Format: cell-based
conditions_used: MDA-MB-231/ATCC (Breast Cancer); 48 h

Exercise: Which Log10LC50 value is on record for C[C@]1(C(=O)[C@H](Cc2ccccc2)NC(=O)[C@H](Cc2ccccc2)NC(=O)[C@H](COC(F)F)NC(=O)CN2CCOCC2)CO1 [Example 29] ?
Key: −4.44

Exercise: Subsequent entry: CC(C)C[C@H](NC(=O)[C@H](Cc1ccccc1)NC(=O)[C@H](COC(F)F)NC(=O)CN1CCOCC1)C(=O)[C@@]1(C)CO1 [Example 25]
Key: −4.21

Exercise: Subsequent entry: Cc1ncc(C(=O)N[C@@H](COC(F)F)C(=O)N[C@@H](COC(F)F)C(=O)N[C@@H](Cc2ccccc2)C(=O)[C@@]2(C)CO2)s1 [Example 1]
Key: −4.73

Exercise: Subsequent entry: C[C@]1(C(=O)[C@H](Cc2ccccc2)NC(=O)[C@H](COC(F)F)NC(=O)[C@H](COC(F)F)NC(=O)CN2CCOCC2)CO1 [Example 26]
Key: −4.21

Where do these numbers come from? They come from patent US9441012B2.
